From: PubChem BioAssay (NCI)

# System: SK-MEL-2 melanoma
# experiment_description: NCI tumour cell line growth inhibition, 48 h; in the data active = GI50 below about 0.43 µM; inactive = the rest
Select the correct class. Options are TRUE (active), FALSE (inactive) and nothing else.

Solved cases (3 shown):
COc1ccc(-c2ccc(-c3ccc(-c4ccc(C(=N)N)cc4)s3)s2)cc1OC :: FALSE
C=CC1CC12C(=O)C1OC2(C)C2C(=O)c3c(O)ccc(O)c3C(=O)C12 (stereo not drawn) :: FALSE
CO[C@@H]1/C=C(C)/C=C/[C@@H](C)/C=C(\C)C(=O)OC(/C(C)=C/C=C(\C)CNC(=O)[C@H](CO)NC=O)[C@@H](C)/C=C/C=C/[C@H](OC)CC/C=C(C)/C=C/C1 (stereo partly drawn) :: TRUE

**Query** Given N#CC1=C(N)NC(=O)NC12Nc1ccccc1S2 (stereo not drawn) , state the outcome it received in this test.
**Result** FALSE

====

Attribute: TGI
# System: MALME-3M melanoma
# experiment_description: NCI tumour cell line growth inhibition, 48 h
Where a SMILES comes first, the peptide text is derived from it. The star is where a group is joined. Boc = CC(C)(C)OC(=O)*; OBn = c1ccc(CO*)cc1

Some entries whose results are on file:
O=C(OCC1CO1)c1cccs1 (stereo unspecified) :: > 100 µM
[N-]=[N+]=NCc1cccc(Nc2cc(=O)[nH]c(=O)[nH]2)c1 :: > 100 µM
COc1cc(-c2nc3sc4c(c3c(=O)[nH]2)CCCCCC4)cc(OC)c1OC :: 20.5 µM
CC(=O)OC1(C)C(=O)OC1(C)C(C)=O (stereo unspecified) :: > 100 µM
Cc1cccc(C2=NC(C)(C)C(C)(C)N=C2c2cccc(C)n2)n1 :: > 100 µM
CCOC(=O)CNC(=O)C(C)NC(=O)C(NC(=O)CC(c1ncc[nH]1)c1ncc[nH]1)C(C)CC (stereo unspecified) :: > 100 µM
C=CCC1(O)c2cccc(NCCO)c2C(=O)c2c(NCCO)cccc21 :: > 100 µM
CC(NC(=O)C(NC(=O)OC(C)(C)C)C(C)C)C(=O)N1CCCC1C(=O)NCC(=O)NC(C(=O)NCC(=O)OCc1ccccc1)C(C)C (stereo unspecified) (Boc-VAPGVG-OBn; configuration not given here) :: > 100 µM
NC(=O)C(c1ccccc1)N1CCOCC1 (stereo unspecified) :: > 100 µM
CCCCOC(=O)NC(=O)c1cn(CCSCCOC(=O)NCCCCCCNC(=O)OCCSCCn2cc(C(=O)NC(=O)OCCCC)c(=O)[nH]c2=O)c(=O)[nH]c1=O :: 76.6 µM

**Query** Which TGI is reported for this molecule? C=C1C(=O)OCC2C(C(=O)O)=CC3C(C)C(C)=CC123 (stereo unspecified)
**Result** 17.6 µM

**Query** Which TGI is reported for this molecule? `CCOC(=O)/C=C/C(C(=O)/C=C/c1ccc(O)c(OC)c1)=C(O)\C=C\c1ccc(O)c(OC)c1`
**Result** > 100 µM

**Query** Which TGI is reported for this molecule? `COc1cccc(/C=N/[N-]C(N)=O)c1[O-].[Ni+2].[OH3+].c1cnc2c(c1)ccc1cccnc12`
**Result** > 100 µM

====

# System: OVCAR-5 ovarian
# experiment_description: NCI tumour cell line growth inhibition, 48 h
Attribute: TGI
# number only, unit µM dropped from output

Some entries whose results are on file:
C=CCC(N[C@H](CO)c1ccccc1)c1cn(C(=O)OCC)c2ccccc12 (some centres undefined) :: 33.8
COc1cc(/C=C2\CN(C)C/C(=C\c3cc(CN4CCCCC4)c(O)c(OC)c3)C2=O)cc(CN2CCCCC2)c1O :: 5.81

In the following, a different compound is considered.
**Query** Enter reported TGI observed with OVCAR-5 ovarian for `C=C(CC[C@@H](C(=O)O)[C@H]1[C@H](O)C[C@@]2(C)C3=CC[C@@H](C(=C)C)[C@](C)(CCC(=O)O)C3=CC[C@]12C)C(C)C`
**Result** 30.5

====

# System: OVCAR-4 ovarian
# experiment_description: NCI tumour cell line growth inhibition, 48 h
*1 amine or outer side, *2 acyl side, *3 side chain or, on linkers, in order; H or OH if unused. Where a SMILES comes first, the peptide text is derived from it. Bridges are numbered along the chain shown (N, C = ends). Roman numbers before positions name the chains, in order. [ ]: non-standard residue; d: D form. Actinocin(9to1) = Cc1c2oc3c(C)ccc(C(=O)[*:1])c3nc-2c(C(=O)[*:2])c(N)c1=O; NMeV = CN[CH](C(=O)O)C(C)C; Sar = CNCC(=O)O
parameter: TGI

**Query** Which TGI is reported for this compound? O=C(OCC1CO1)c1cccs1 (stereo not drawn)
**Result** > 100 µM

**Query** Which TGI is reported for this compound? Cc1c2oc3c(C)ccc(C(=O)NC4C(=O)NC(C(C)O)C(=O)N5CCCC5C(=O)N(C)CC(=O)N(C)C(C(C)C)C(=O)OC4C)c3nc-2c(C(=O)NC2C(=O)NC(C(C)O)C(=O)N3CCCC3C(=O)N(C)CC(=O)N(C)C(C(C)C)C(=O)OC2C)c(N)c1=O (stereo not drawn) (I: TTP[Sar][NMeV] / II: TTP[Sar][NMeV]; ester I:1-I:C, II:1-II:C; linker I:N-II:N via Actinocin(9to1); configuration not given here)
**Result** > 63.3 µM

**Query** Which TGI is reported for this compound? Cc1cccc(NC(=O)C(=O)C(C(=O)c2ccccc2F)C2OC(=O)c3ccccc32)c1Cl (stereo not drawn)
**Result** > 100 µM

====

# System: RXF 393 renal
# experiment_description: NCI tumour cell line growth inhibition, 48 h
parameter: TGI (µM)
# number only, unit µM dropped from output

Some entries whose results are on file:
O=C(O)c1cc2cc(OCc3ccccc3)c(OCc3ccccc3)cc2[nH]1 :: 30.4
O=C(c1ccco1)c1c(C(F)(F)F)n([O-])c2ccccc2[n+]1=O :: 9.45
CO[C@@H]1/C=C(C)/C=C/[C@@H](C)/C=C(\C)C(=O)OC(/C(C)=C/C=C(\C)CNC(=O)[C@H](CO)NC=O)[C@@H](C)/C=C/C=C/[C@H](OC)CC/C=C(C)/C=C/C1 (some centres undefined) :: 0.808

**Query** Which TGI is reported for this molecule? `c1cn2cc(-c3ccc4cn[nH]c4c3)nc(Nc3ccc(N4CCOCC4)cc3)c2n1`
**Result** 18.3

**Query** Which TGI is reported for this molecule? `O=C1C(Br)=CC2(C=C1Br)CCNC1=C2C(=O)c2cccnc2C1=O`
**Result** 21.3

====

# Test system: KM12 colon
# experiment_description: NCI tumour cell line growth inhibition, 48 h
Attribute: TGI
# number only, unit µM dropped from output

**Query** Which TGI is reported for this molecule? `c1ccc2c(c1)nc(NC1CCCC1)c1[nH]c(C3CCCC3)nc12`
**Result** 21.3

**Query** Which TGI is reported for this molecule? COc1cccc2c1C(=O)c1c(O)c3c(c(O)c1C2=O)C[C@@](O)(C(=O)CO)C[C@@H]3OC1C[C@H](N)[C@H](O)[C@H](C)O1 (stereo partly specified)
**Result** 6.27

**Query** Which TGI is reported for this molecule? `Cc1ccnc2[nH]c(-c3ccccc3)cc(=O)c12`
**Result** 12.8

**Query** Which TGI is reported for this molecule? `C/C(=N\N=C(/[Se])N1CC2CCC(CC2)C1)c1ccccn1`
**Result** 1.54

====

Attribute: TGI
# Tested on: SF-539 CNS
# experiment_description: NCI tumour cell line growth inhibition, 48 h

Some entries whose results are on file:
Cc1cc(Cc2cc(C)cc(C(C)(C)C)c2O)c(O)c(C(C)(C)C)c1 :: 26 µM
CO[C@@H]1CC(=O)C2(CC(=O)O[C@@H]2/C=C(\C)CCC=C(C)C)C[C@@H]1O (some centres undefined) :: 1.56 µM
COC(=O)c1cc(C#N)[nH]c1-c1ccc(C)s1 :: > 100 µM

**Query** Enter reported TGI observed with SF-539 CNS for COC(=O)C1(F)C(=O)NC(=O)NC1O (centres undefined)
**Result** > 100 µM

**Query** Enter reported TGI observed with SF-539 CNS for `C=CC(=O)N[C@H]1CCOC[C@H]1Nc1ncc2cc(-c3c(Cl)c(OC)cc(OC)c3Cl)ccc2n1`
**Result** 29.9 µM

**Query** Enter reported TGI observed with SF-539 CNS for Cc1ccc2c(O)c(O)cc(NC(C)CCCN)c2n1 (centres undefined)
**Result** 17.2 µM

**Query** Enter reported TGI observed with SF-539 CNS for `COc1ccc2c(c1)C(=O)/C(=C/c1ncc([N+](=O)[O-])n1C)O2`
**Result** 3.41 µM

**Query** Enter reported TGI observed with SF-539 CNS for Cc1nc2ccc(S(=O)(=O)O)cc2c(=O)n1-c1ccc(C(=O)NN2C(=O)C(Cl)C2c2ccccc2O)cc1 (centres undefined)
**Result** > 100 µM

**Query** Enter reported TGI observed with SF-539 CNS for `CCOC(=O)/C=C(/C(=O)OCC)n1cc(C)c(=O)n(Cc2cn(COCCOC(C)=O)nn2)c1=O`
**Result** 38.1 µM

**Query** Enter reported TGI observed with SF-539 CNS for `O=C1COc2ccc([N+](=O)[O-])cc2C(=O)C1`
**Result** > 10 µM
